Test system: CAKI-1
measurement-description: NCI tumour cell line growth inhibition, 48 h
Activity calls are given as the source filed them. Rule as the data show it: active = GI50 up to about 1.1 µM and inactive = higher.
recorded-endpoint: GI50

compound="COc1cc2c(c(OC)c1OC)-c1c(cc3c(c1OC)OCO3)CC(C)C(C)(O)C2OC(=O)c1ccccc1 (stereo not given)" recorded_endpoint=GI50 measured="33 µM (inactive)"
compound="C=C/C(C)=C\\CC1[C@](C)(O)CC[C@H]2C(C)(C)C(=O)CC[C@]12C (stereo not given in full)" recorded_endpoint=GI50 measured="> 100 µM (inactive)"
compound=COC(=O)c1cc2c(cc1CC1Cc3cc4c(cc3C1)CCC4)CCC2 recorded_endpoint=GI50 measured="90.6 µM (inactive)"
compound="O=C1c2cc3ccccc3cc2C2(c3ccc(Cl)cc3)NCCN12 (stereo not given)" recorded_endpoint=GI50 measured="44.7 µM (inactive)"
compound=Cc1cccc(C(=O)O)c1C(=O)c1cccc2ccccc12 recorded_endpoint=GI50 measured="> 100 µM (inactive)"
compound=Oc1ccc2ccccc2c1/N=N/c1ccc(F)cc1 recorded_endpoint=GI50 measured="> 100 µM (inactive)"
compound=O=C1C(=O)N(c2ccc(Cl)cc2)C(=O)C(=O)C1c1nc2ccccc2s1 recorded_endpoint=GI50 measured="> 100 µM (inactive)"
compound="C[N+]1(C)CCOC(O)(c2ccccc2)C1 (stereo not given)" recorded_endpoint=GI50 measured="> 100 µM (inactive)"
compound=O=C(Nc1nc(C23CC4CC(CC(C4)C2)C3)cs1)c1cc2cc(Br)cc(Br)c2oc1=O recorded_endpoint=GI50 measured="> 100 µM (inactive)"
compound="CC(C)=NOC(=O)CNC(=O)C(Cc1ccccc1)NC(=O)C(C)NC(=O)OC(C)(C)C (stereo not given)" recorded_endpoint=GI50 measured="> 100 µM (inactive)"
compound=COc1ccc(/C=N\N2C(=O)Cc3ccccc32)cc1 recorded_endpoint=GI50 measured="> 100 µM (inactive)"
compound=CCOC(=O)NN(C(=O)OCC)C(C(=O)C1=CCCCC1)N(NC(=O)OCC)C(=O)OCC recorded_endpoint=GI50 measured="> 100 µM (inactive)"
compound=Cc1cc(C)nc(NS(=O)(=O)c2ccc(Nc3c4ccccc4nc4c(C(=O)Nc5ccc(S(=O)(=O)N=C(N)N)cc5)cccc34)cc2)n1 recorded_endpoint=GI50 measured="> 100 µM (inactive)"
compound=CC1=C(C(=O)NCc2ccccc2)C(c2ccc([N+](=O)[O-])cc2)C(C(=O)NCc2ccccc2)=C(C)N1 recorded_endpoint=GI50 measured="26.7 µM (inactive)"
compound=c1ccc(C(c2ccccc2)[P+](c2ccccc2)(c2ccccc2)c2ccccc2)cc1 recorded_endpoint=GI50 measured="2.69 µM (inactive)"
compound=O=C(O)CCc1nn2c(nc1=O)sc1ccc3ccccc3c12 recorded_endpoint=GI50 measured="> 100 µM (inactive)"
compound="CC1(C)C(N2CCOCC2)CS1(=O)=O (stereo not given)" recorded_endpoint=GI50 measured="> 10 µM (inactive)"
compound=S=c1oc(CCCCCCCCc2nn(CNc3ccccc3)c(=S)o2)nn1CNc1ccccc1 recorded_endpoint=GI50 measured="> 100 µM (inactive)"
compound=Cc1ccc2nc(CC(=O)c3ccc4ccccc4c3)c(O)nc2c1 recorded_endpoint=GI50 measured="> 100 µM (inactive)"
compound="COc1ccc(NC(=O)C(=O)C(C(=O)c2ccccc2)C2OC(=O)c3ccccc32)c([N+](=O)[O-])c1 (stereo not given)" recorded_endpoint=GI50 measured="> 100 µM (inactive)"

Data provenance: ChEMBL document CHEMBL1201862
